pIC50: −log10 of the molar value.
Record: pIC50 reported on EGFR (Homo sapiens, UniProt P00533).
Sequence (P00533 25-1210): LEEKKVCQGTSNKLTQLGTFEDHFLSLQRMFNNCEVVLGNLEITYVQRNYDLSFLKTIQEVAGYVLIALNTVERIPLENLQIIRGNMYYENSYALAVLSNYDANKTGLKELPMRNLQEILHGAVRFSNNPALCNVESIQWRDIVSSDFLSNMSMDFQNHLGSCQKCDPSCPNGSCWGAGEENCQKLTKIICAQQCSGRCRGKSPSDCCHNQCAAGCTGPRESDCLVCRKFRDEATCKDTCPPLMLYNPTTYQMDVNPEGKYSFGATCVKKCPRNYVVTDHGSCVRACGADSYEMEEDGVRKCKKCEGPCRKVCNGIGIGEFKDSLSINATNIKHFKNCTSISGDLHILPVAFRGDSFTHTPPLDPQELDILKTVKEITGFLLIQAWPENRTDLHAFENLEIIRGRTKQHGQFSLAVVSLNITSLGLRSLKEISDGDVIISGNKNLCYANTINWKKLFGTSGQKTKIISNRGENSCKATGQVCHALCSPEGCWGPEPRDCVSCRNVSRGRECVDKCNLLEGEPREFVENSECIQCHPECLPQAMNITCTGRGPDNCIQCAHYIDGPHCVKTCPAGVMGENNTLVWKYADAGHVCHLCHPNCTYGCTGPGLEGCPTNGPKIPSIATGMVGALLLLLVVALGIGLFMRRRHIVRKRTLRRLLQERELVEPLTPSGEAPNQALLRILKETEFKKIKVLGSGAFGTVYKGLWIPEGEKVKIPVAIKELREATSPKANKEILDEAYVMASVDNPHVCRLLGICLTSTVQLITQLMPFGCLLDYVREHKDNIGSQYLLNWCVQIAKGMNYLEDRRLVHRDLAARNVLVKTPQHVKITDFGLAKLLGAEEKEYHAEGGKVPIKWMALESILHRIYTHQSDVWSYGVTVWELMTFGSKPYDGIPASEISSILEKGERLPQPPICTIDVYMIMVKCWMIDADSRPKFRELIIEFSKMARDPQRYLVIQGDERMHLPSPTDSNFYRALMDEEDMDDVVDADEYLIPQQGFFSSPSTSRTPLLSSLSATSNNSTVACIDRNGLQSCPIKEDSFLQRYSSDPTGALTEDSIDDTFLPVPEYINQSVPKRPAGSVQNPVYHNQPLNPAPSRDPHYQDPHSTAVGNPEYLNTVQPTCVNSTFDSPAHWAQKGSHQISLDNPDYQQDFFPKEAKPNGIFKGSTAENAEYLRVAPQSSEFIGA

INPUT_SMILES: COc1cc(OC)nc(NC(=O)CN2CCN(c3ccccc3OC)CC2)n1
pIC50: 6.00

INPUT_SMILES: COc1cc(OC)nc(NC(=O)CN2CCN(c3ccccc3)CC2)n1
pIC50: 5.29

INPUT_SMILES: COc1cc(OC)nc(NC(=O)CN2CCN(c3cccc(C(F)(F)F)c3)CC2)n1
pIC50: 5.71

INPUT_SMILES: COc1ccc(N2CCN(CC(=O)Nc3nc(OC)cc(OC)n3)CC2)cc1
pIC50: 6.04

INPUT_SMILES: COc1cc(OC)nc(NC(=O)CN2CCN(c3ccccc3F)CC2)n1
pIC50: 5.87

INPUT_SMILES: COc1cc(OC)nc(NC(=O)CN2CCN(c3ccccn3)CC2)n1
pIC50: 5.59

INPUT_SMILES: COc1cc(OC)nc(NC(=O)CN2CCN(c3ccc(Cl)c(Cl)c3)CC2)n1
pIC50: 7.70

INPUT_SMILES: COc1cc(OC)nc(NC(=O)CN2CCN(c3ccc([N+](=O)[O-])cc3)CC2)n1
pIC50: 5.67

###

Test: Acute oral toxicity, bodyweights
Format: in vivo
Details: mice, day 7
Procedure: Before the acute toxicity experiment, mice were stopped being served food but water was kept for 3 h. The test substances were dissolved in maize germ oil[24]. The preliminary experiment was performed as follows: Four dose levels, 100, 500, 2000, and 5000 mg/kg body weight and three mice for each level were used. We observed the death and evident toxicity in 7 days to determine the general concentration range. […]
In this section we review reported Bodyweights 7 days ± SD values for a set of molecules.

INPUT_SMILES: COc1cc(OC)nc(NC(=O)CN2CCN(c3ccccc3)CC2)n1
RESULT_UNITS: g
Bodyweights 7 days ± SD: 25.57

INPUT_SMILES: COc1ccc(N2CCN(CC(=O)Nc3nc(OC)cc(OC)n3)CC2)cc1
RESULT_UNITS: g
Bodyweights 7 days ± SD: 25.83

INPUT_SMILES: COc1cc(OC)nc(NC(=O)CN2CCN(c3ccccc3F)CC2)n1
RESULT_UNITS: g
Bodyweights 7 days ± SD: 26.09

INPUT_SMILES: COc1cc(OC)nc(NC(=O)CN2CCN(c3ccc([N+](=O)[O-])cc3)CC2)n1
RESULT_UNITS: g
Bodyweights 7 days ± SD: 27.25

Numbers sourced from paper PMC4563558.
